The reported numbers originate from patent US20250186600A1.

Kindly supply the reported Omalizumab kD values for the records listed here.
# Tested on: proteins described in Table 50
# Assay Info: DLS diffusion interaction parameter kD (Example 49)
# Type: physicochemical
# Measurement Context: omalizumab; excipient stock concentration 200 mM, mixed 1:1 with protein solution; 20 mM His HCl pH 6; 25° C.
Numbers only, in mL/g.

Nc1ccc(C(=O)O)cc1    -17.4

Hi! Can you tell me Omalizumab kD for each of these compounds?
1. NC(=O)CN1CCCC1=O
2. C1COCCOCCOCCOCCO1
3. O.O.O.O.O.O.O.O.O.O.[Na+].[Na+].[O-]B1OB2OB([O-])OB(O1)O2 [Sodium borate]
4. Cc1ncc[nH]1

Response:
1: -23.6; 2: -25.0; 3: -28.8; 4: -24.5

----------
# Assay Info: Caffeine solubility with co-solutes during refrigerated storage (Example 61)
# Assay type: physicochemical
# Design: key: (PPT)—precipitate observed; (—)—clear solution observed
# Measurement Context: caffeine 15 mg/mL, 50 mM co-solute, 25 mM histidine pH 6, stored 2 to 5° C., Day 1
Outcome Measure: Day 1 (visual observation for precipitate)

# example entries with known answers
CN1CCCC1=O    —
N[C@@H](Cc1ccccc1)C(=O)O    —
NC(=O)c1cccnc1 [Nicotinamide]    —
O=C([O-])c1ccccc1.[Na+] [Sodium benzoate]    —

Below: the item to evaluate.
Prompt: Any idea what Day 1 (visual observation for precipitate) was measured for OCc1ccccc1 ?
Response: —

----------
# Assay Info: Caffeine solubility with co-solutes during refrigerated storage (Example 61)
# Type: physicochemical
# Set-up: key: (PPT)—precipitate observed; (—)—clear solution observed
# Measurement Context: caffeine 12.5 mg/mL, 50 mM co-solute, 25 mM histidine pH 6, stored 2 to 5° C., Day 1
Outcome Measure: Day 1 (visual observation for precipitate)

# example entries with known answers
O=C([O-])c1ccccc1.[Na+] [Sodium benzoate]    —
NC(=O)c1cccnc1 [Nicotinamide]    —
N[C@@H](Cc1ccccc1)C(=O)O    —
CN1CCCC1=O    —

Below: the item to evaluate.
Prompt: Any idea what Day 1 (visual observation for precipitate) was measured for OCc1ccccc1 ?
Response: —

----------
# Test system: omalizumab
# Assay Info: Freeze-thaw stability, light scattering at 350 nm (Example 48)
# Assay type: physicochemical
# Measurement Context: excipient 5 mg/mL, omalizumab 5 mg/mL, 20 mM histidine pH 6.0, at least 5 freeze (−80° C.)/thaw cycles
Outcome Measure: % reduction in light scattering at 350 nm vs. control (%)
One number for each entry, in %.

CNC[C@H](O)[C@@H](O)[C@H](O)[C@H](O)CO    15.3

Hi! Can you tell me % reduction in light scattering at 350 nm vs. control for each of these molecules?
1. O=C(CO)[C@H](O)[C@H](O)[C@H](O)CO
2. OC[C@H]1O[C@H](OC[C@H]2O[C@H](O[C@]3(CO)O[C@H](CO)[C@@H](O)[C@@H]3O)[C@H](O)[C@@H](O)[C@@H]2O)[C@H](O)[C@@H](O)[C@H]1O
3. OC[C@@H](O)[C@H](O)[C@@H](O)CO

Response:
1. 15.3
2. 3.7
3. 10.7

Hi! Can you tell me % reduction in light scattering at 350 nm vs. control for each of these molecules?
1. OC[C@@H](O)[C@@H](O)[C@H](O)[C@H](O)CO
2. OC[C@H]1O[C@@](CO)(O[C@H]2O[C@H](CO)[C@@H](O)[C@H](O)[C@H]2O)[C@@H](O[C@H]2O[C@H](CO)[C@@H](O)[C@H](O)[C@H]2O)[C@@H]1O

Response:
[17.8, 7.4]

Hi! Can you tell me % reduction in light scattering at 350 nm vs. control for each of these molecules?
1. OC[C@H](O)[C@@H](O)[C@H](O)[C@@H](O)CO
2. O=C(CO)[C@@H](O)[C@H](O)[C@H](O)[C@H](O)CO
3. NC(=O)c1ccncc1 [Isonicotinamide]
4. O=C(O)CN(CCN(CC(=O)O)CC(=O)O)CCN(CC(=O)O)CC(=O)O
5. OC[C@@H](O)C(O)[C@H](O)CO

Response:
1: 11.7; 2: 16.0; 3: 4.8; 4: 17.2; 5: 17.8
